B1: library; numbered along this chain (parent)
chain: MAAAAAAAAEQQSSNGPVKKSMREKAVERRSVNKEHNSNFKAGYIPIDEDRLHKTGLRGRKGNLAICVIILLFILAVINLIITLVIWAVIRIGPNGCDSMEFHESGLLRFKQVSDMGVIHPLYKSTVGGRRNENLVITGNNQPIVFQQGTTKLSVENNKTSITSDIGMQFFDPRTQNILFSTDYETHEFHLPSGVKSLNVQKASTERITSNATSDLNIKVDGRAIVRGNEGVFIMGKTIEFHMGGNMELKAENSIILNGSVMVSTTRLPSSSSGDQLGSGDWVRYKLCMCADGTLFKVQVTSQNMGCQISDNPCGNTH

# Variants of: B1
# Assay Info: SGCB cell-surface expression functional score (HA stain, bin4 vs bin1, normalised to synonymous) (log10 ratio); higher = more cell-surface SGCB (functional)
Readout: SGCB cell-surface expression functional score (log10)
Numbers only.

Here's what some known entries look like.
Mut: I74Q
Measured Value: 0
//
Mut: Q11V
Measured Value: -0.03
//
Mut: I144D
Measured Value: -0.57
//
Mut: M262W
Measured Value: 0.08
//
Mut: F102H
Measured Value: 0.01
//
Mut: T317F
Measured Value: 0.01
//
Mut: C97L
Measured Value: 0.37
//
Mut: S161M
Measured Value: -0.34
//
Mut: I256Q
Measured Value: -0.26
//
Mut: M100V
Measured Value: -0.03

Hi! Can you tell me SGCB cell-surface expression functional score (log10) for each of these variants?
1. L249R
2. G96E
3. S302L

1: -0.27; 2: -1.89; 3: -0.93

Hi! Can you tell me SGCB cell-surface expression functional score (log10) for each of these variants?
1. Y123Q
2. I225E
3. C67N
4. L108K
5. S105Y
6. I90D
7. N258S
8. K111P

[0.06, 1.24, 0.19, -1.85, 0.11, -0.63, 0.66, -1.47]

Hi! Can you tell me SGCB cell-surface expression functional score (log10) for each of these variants?
1. E252P
2. L135N
3. S264D
4. L277Q
5. P192A
6. T301C

[0.32, -1.44, 0.96, -0.65, -1.12, 0.31]

Hi! Can you tell me SGCB cell-surface expression functional score (log10) for each of these variants?
1. L64I
2. S154K
3. E24M
4. G306K
5. G62K
6. H190L
7. E206P

1. -0.1
2. 0.55
3. -0.63
4. -0.17
5. -0.29
6. -0.13
7. -0.42

Hi! Can you tell me SGCB cell-surface expression functional score (log10) for each of these variants?
1. N177P
2. N134L

1: -1.5; 2: -0.84

Hi! Can you tell me SGCB cell-surface expression functional score (log10) for each of these variants?
1. A65M
2. G128K
3. V18Q
4. L75D
5. I70R
6. A9V
7. F296M
8. R91W

[-0.02, -1.35, 0.17, -0.31, -0.16, 0.15, -0.13, -1.69]

Hi! Can you tell me SGCB cell-surface expression functional score (log10) for each of these variants?
1. G43M
2. L52A

1. -0.74
2. 0.22
